# assay_summary: Acute Toxic characters (Mouse LD50)
# Assay type: in vivo
# study_conditions: mouse, in vivo, ip; Intraperitoneal Administration, male; HCl salt
Recorded measurements of LD50, one per entry

C[C@@H](O)[C@H](NC(=O)[C@@H](CCCN)NC(=O)[C@H](CC(O)CNC(=N)N)NC(=O)[C@@H](N)CCCNC(=N)N)C(=O)N[C@H](CCCN)C(=O)N[C@@H](CCCCN)C(=O)N[C@H](Cc1ccc(O)cc1)C(=O)O (single isomer, unassigned): > 300 mg/kg

Now for the molecule whose LD50 we want.
Field LD50 (entry C[C@@H](O)[C@H](NC(=O)[C@@H](CCCN)NC(=O)[C@H](CC(O)CNC(=N)N)NC(=O)[C@@H](N)CCCNC(=N)N)C(=O)N[C@H](CCCN)C(=O)N[C@@H](CC(O)CNC(=N)N)C(=O)N[C@H](Cc1ccc(O)cc1)C(=O)O (single isomer, unassigned) ) reads 43.2 to 57.2 mg/kg

---

# assay_summary: Acute Toxic characters (Mouse LD50)
# Type: in vivo
# study_conditions: mouse, in vivo; Intravenous Administration, male; HCl salt
Recorded measurements of LD50, one per entry

C[C@@H](O)[C@H](NC(=O)[C@@H](CCCN)NC(=O)[C@H](CC(O)CNC(=N)N)NC(=O)[C@@H](N)CCCNC(=N)N)C(=O)N[C@H](CCCN)C(=O)N[C@@H](CC(O)CNC(=N)N)C(=O)N[C@H](Cc1ccc(O)cc1)C(=O)O (single isomer, unassigned): 24.1 to 34.8 mg/kg

Field LD50 (entry C[C@@H](O)[C@H](NC(=O)[C@@H](CCCN)NC(=O)[C@H](CC(O)CNC(=N)N)NC(=O)[C@@H](N)CCCNC(=N)N)C(=O)N[C@H](CCCN)C(=O)N[C@@H](CCCCN)C(=O)N[C@H](Cc1ccc(O)cc1)C(=O)O (single isomer, unassigned) ) reads 120 to 144 mg/kg

---

# assay_summary: Acute Toxic characters (Mouse LD50)
# Format: in vivo
# study_conditions: mouse, in vivo; Oral Administration, male; HCl salt
Recorded measurements of LD50, one per entry

Field LD50 (entry C[C@@H](O)[C@H](NC(=O)[C@@H](CCCN)NC(=O)[C@H](CC(O)CNC(=N)N)NC(=O)[C@@H](N)CCCNC(=N)N)C(=O)N[C@H](CCCN)C(=O)N[C@@H](CCCCN)C(=O)N[C@H](Cc1ccc(O)cc1)C(=O)O (single isomer, unassigned) ) reads > 6000 mg/kg

Field LD50 (entry C[C@@H](O)[C@H](NC(=O)[C@@H](CCCN)NC(=O)[C@H](CC(O)CNC(=N)N)NC(=O)[C@@H](N)CCCNC(=N)N)C(=O)N[C@H](CCCN)C(=O)N[C@@H](CC(O)CNC(=N)N)C(=O)N[C@H](Cc1ccc(O)cc1)C(=O)O (single isomer, unassigned) ) reads 2400 to 3000 mg/kg

meta.source: patent US4221705A
